# system_tested: 5-hydroxytryptamine receptor 2A (Homo sapiens, UniProt P28223)
# Sequence (P28223 whole entry): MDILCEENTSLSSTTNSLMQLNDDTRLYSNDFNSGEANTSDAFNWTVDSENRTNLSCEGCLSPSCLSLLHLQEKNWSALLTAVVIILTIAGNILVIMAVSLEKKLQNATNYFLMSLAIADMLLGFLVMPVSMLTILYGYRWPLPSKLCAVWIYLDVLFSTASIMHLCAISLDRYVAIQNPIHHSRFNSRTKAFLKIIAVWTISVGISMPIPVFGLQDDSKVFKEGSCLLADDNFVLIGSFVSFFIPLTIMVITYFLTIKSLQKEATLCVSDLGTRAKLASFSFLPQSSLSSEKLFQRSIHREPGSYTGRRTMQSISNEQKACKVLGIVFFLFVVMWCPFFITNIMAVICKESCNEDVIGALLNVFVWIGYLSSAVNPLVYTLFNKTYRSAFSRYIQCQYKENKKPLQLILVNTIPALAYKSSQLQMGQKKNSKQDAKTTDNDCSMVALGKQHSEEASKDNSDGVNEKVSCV
# procedure_details: Antagonist activity at 5-HT2A receptor (unknown origin) assessed as decrease in intracellular calcium flux preincubated with calcium followed by compound challenge and measured after 10 mins by FLIPR method
# Assay type: functional, cell-based
# condition_label: read-out: pIC50 (converted)
Param label: returns MET when IC50 < 20 nM, returns NOT MET otherwise, including exact equality.

smiles_data	label_class
Nc1ccc2c(c1)N(CCCCN1CCN(c3cccc4sccc34)CC1)S(=O)(=O)CC2	MET
COc1ccc2ncc(=O)n(CCCCN3CCN(c4cccc5sccc45)CC3)c2c1	NOT MET
CN1CC(=O)N(CCCCN2CCN(c3cccc4sccc34)CC2)c2ccccc2C1=O	NOT MET
O=c1[nH]c(=O)n(CCCCN2CCN(c3cccc4sccc34)CC2)c2ccccc12	NOT MET
O=S1(=O)CCc2ccc(O)cc2N1CCCCN1CCN(c2cccc3sccc23)CC1	MET
O=C1NCC(=O)N(CCCCN2CCN(c3cccc4sccc34)CC2)c2cc(F)ccc21	NOT MET
